Kindly state abundance fitness for each of the entries shown.
B1: Homeobox protein cut-like 1, residues 548 to 629; numbered along this chain, P39880 (parent)
chain: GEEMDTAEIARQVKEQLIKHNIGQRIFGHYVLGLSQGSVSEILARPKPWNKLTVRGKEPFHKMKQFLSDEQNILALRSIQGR

- Variants of: B1
- protocol-summary: abundance fitness (aPCA) (normalised: wild type 0, dead -1); higher = more abundant; growth selection in yeast, the domain comes from the species named
- stated-conditions: Homo sapiens
Give bare numbers.

Known results for variants:
Fill in: abundance fitness of P48E is ___ -0.126

Can you handle P48A next? -0.119

Quick request: abundance fitness for each listed item, please.
1. I9E
2. G23D

1. -0.517
2. 0.114

Quick request: abundance fitness for each listed item, please.
1. T53F
2. S40W
3. S68T
4. R77V
5. R82K

-0.55
-0.131
-0.122
-0.035
0.123

Quick request: abundance fitness for each listed item, please.
1. S38H
2. P46E
3. I79K
4. F27C
5. G33L
6. L17E
7. P46H
8. G33Y

1: -0.031; 2: -0.779; 3: 0.038; 4: -1.03; 5: -0.822; 6: -0.613; 7: -0.746; 8: -1.16

Quick request: abundance fitness for each listed item, please.
1. S38C
2. P48M
3. G81F
4. M4T
5. G1M
6. K14I
7. Q71V

[0.025, -0.27, -0.138, -0.204, 0.038, -0.24, -0.2]

Quick request: abundance fitness for each listed item, please.
1. P46N
2. G33K
3. T53I
4. P59Y

[-0.685, -0.217, -0.521, 0.025]

Quick request: abundance fitness for each listed item, please.
1. K47T
2. L34Y
3. I26V
4. Q36W
5. G81N
6. L17M

1: -0.019; 2: -0.26; 3: 0.034; 4: -0.039; 5: 0.117; 6: -0.405

Quick request: abundance fitness for each listed item, please.
1. L76M
2. M4Y

-0.461
-0.203

Quick request: abundance fitness for each listed item, please.
1. R11Q
2. G56M
3. L17R
4. K19L
5. R11F
6. D69M
7. I18Y

1. -0.24
2. -0.143
3. -0.609
4. -0.201
5. -0.243
6. -0.231
7. 0.008
